Tested on: 324938-238-R-J1-PDC complex spheroids viability
Experiment: Anticancer human tumor 324938-238-R-J1-PDC patient-derived bladder carcinoma cell line growth inhibition [CLK]; active = viability on the fitted dose curve at most 10% of control; inactive = the rest
Details: second compound 0.0316 µM; first compound 0.316 µM
Return exactly one item of true (active), false (inactive)

*Q* For COc1cccc2c1C(=O)c1c(O)c3c(c(O)c1C2=O)CC(O)(C(=O)CO)CC3OC1CC(N)C(O)C(C)O1 (stereo not given) + CNC(=O)c1ccc(Nc2nc(OC3CCCC3)c3c(-c4ccc5nc(C)oc5c4)c[nH]c3n2)c(OC)c1 , which call appears in the assay record?
*A* true

*Q* Per the records of this test, what outcome belongs to C=C(F)C(=O)N1CCN(c2nc(OCC3CCCN3C)nc3c2CCN(c2cccc4cccc(Cl)c24)C3)CC1CC#N (stereo not given) + CNC(=O)c1ccc(Nc2nc(OC3CCCC3)c3c(-c4ccc5nc(C)oc5c4)c[nH]c3n2)c(OC)c1 ?
*A* false

*Q* Could you kindly confirm the outcome this assay logged for Nc1ccccc1NC(=O)c1ccc(CNC(=O)OCc2cccnc2)cc1 + CNC(=O)c1ccc(Nc2nc(OC3CCCC3)c3c(-c4ccc5nc(C)oc5c4)c[nH]c3n2)c(OC)c1 ?
*A* false

*Q* Fill in: this test's call for CCN1CCN(Cc2ccc(Nc3ncc(F)c(-c4cc(F)c5nc(C)n(C(C)C)c5c4)n3)nc2)CC1 + CNC(=O)c1ccc(Nc2nc(OC3CCCC3)c3c(-c4ccc5nc(C)oc5c4)c[nH]c3n2)c(OC)c1 is ___
*A* false

*Q* Tell me the assay call for CC(Nc1ccc2c(c1)OCCn1cc(N3C(=O)OCC3C(F)F)nc1-2)C(N)=O (stereo not given) + CNC(=O)c1ccc(Nc2nc(OC3CCCC3)c3c(-c4ccc5nc(C)oc5c4)c[nH]c3n2)c(OC)c1 please.
*A* false

* * *

System: 324938-238-R-J1-PDC complex spheroids viability
Assay: Anticancer human tumor 324938-238-R-J1-PDC cell line growth inhibition [CLK]; active means viability on the fitted dose curve at most 10% of control; inactive means the rest;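 also: viability read after seven days of drug exposure; 100% = DMSO vehicle control wells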
Settings: second compound 10 µM; first compound 0.1 µM
Response enum: active, inactive

*Q* Lab log entry: COc1c(OCCCN2CCOCC2)ccc2c3n(c(=NC(=O)c4cnc(N)nc4)nc12)CCN3 + CNC(=O)c1ccc(Nc2nc(OC3CCCC3)c3c(-c4ccc5nc(C)oc5c4)c[nH]c3n2)c(OC)c1 — outcome as called in the assay?
*A* active

*Q* Recorded call for O=C(c1cc(Cc2n[nH]c(=O)c3ccccc23)ccc1F)N1CCN(C(=O)C2CC2)CC1 + CN1CCN(c2cc(C(=O)Nc3cc4cc(-c5cnn(C)c5)ccc4cn3)ccn2)CC1 ?
*A* active

*Q* # lookup: test call for C=C(F)C(=O)N1CCN(c2nc(OCC3CCCN3C)nc3c2CCN(c2cccc4cccc(Cl)c24)C3)CC1CC#N (stereo not given) + CNC(=O)c1ccc(Nc2nc(OC3CCCC3)c3c(-c4ccc5nc(C)oc5c4)c[nH]c3n2)c(OC)c1
*A* inactive

*Q* Could you please tell me the result logged for COc1cccc2c1C(=O)c1c(O)c3c(c(O)c1C2=O)CC(O)(C(=O)CO)CC3OC1CC(N)C(O)C(C)O1 (stereo not given) + CN1CCN(c2cc(C(=O)Nc3cc4cc(-c5cnn(C)c5)ccc4cn3)ccn2)CC1 in this assay?
*A* active

*Q* Entry COC1C=CCC(C)C(C)S(=O)(=O)NC(=O)c2ccc3c(c2)N(CC2CCC21)CC1(CCCc2cc(Cl)ccc21)CO3 (stereo not given) + CN1CCN(c2cc(C(=O)Nc3cc4cc(-c5cnn(C)c5)ccc4cn3)ccn2)CC1 : call = ?
*A* active

*Q* Name the outcome recorded for C=CC(=O)N1CCN(c2nc(=O)n(-c3c(C)ccnc3C(C)C)c3nc(-c4c(O)cccc4F)c(F)cc23)C(C)C1 (stereo not given) + CNC(=O)c1ccc(Nc2nc(OC3CCCC3)c3c(-c4ccc5nc(C)oc5c4)c[nH]c3n2)c(OC)c1 in the assay.
*A* inactive

*Q* Hi, sorry to bother you, what did the test record for COc1ccc([C@@H](O)c2cc(-c3ncnc4cc(N5CCOCC5)ccc34)c(F)cc2Cl)nn1 + CN1CCN(c2cc(C(=O)Nc3cc4cc(-c5cnn(C)c5)ccc4cn3)ccn2)CC1 ?
*A* active

*Q* Outcome? Cn1ncnc1[C@H]1c2n[nH]c(=O)c3cc(F)cc(c23)N[C@@H]1c1ccc(F)cc1 + CN1CCN(c2cc(C(=O)Nc3cc4cc(-c5cnn(C)c5)ccc4cn3)ccn2)CC1
*A* active

*Q* What classification did Nc1ccn(C2OC(CO)C(O)C2(F)F)c(=O)n1 (stereo not given) + CN1CCN(c2cc(C(=O)Nc3cc4cc(-c5cnn(C)c5)ccc4cn3)ccn2)CC1 end up with in this test?
*A* active

*Q* Tell me the recorded outcome of this test for CC(=O)O[C@H]1C(=O)[C@@]2(C)[C@H]([C@H](OC(=O)c3ccccc3)[C@]3(O)C[C@H](OC(=O)[C@H](O)[C@@H](NC(=O)c4ccccc4)c4ccccc4)C(C)=C1C3(C)C)[C@]1(OC(C)=O)CO[C@@H]1C[C@@H]2O + CN1CCN(c2cc(C(=O)Nc3cc4cc(-c5cnn(C)c5)ccc4cn3)ccn2)CC1 .
*A* active

* * *

Tested on: 324938-238-R-J1-PDC complex spheroids viability
Experiment: Anticancer human tumor 324938-238-R-J1-PDC cell line growth inhibition [CLK];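 also: viability read after seven days of drug exposure; 100% = DMSO vehicle control wells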
Details: second compound 0.316 µM; first compound 0.01 µM; stronger effect = lower value
Could you mark each record true (1) if its viability, T/C falls strictly under 20%, and false (0) if it equals or exceeds it?

*Q* Could you please tell me whether viability, T/C recorded for Cn1ncnc1[C@H]1c2n[nH]c(=O)c3cc(F)cc(c23)N[C@@H]1c1ccc(F)cc1 + CNC(=O)c1ccc(Nc2nc(OC3CCCC3)c3c(-c4ccc5nc(C)oc5c4)c[nH]c3n2)c(OC)c1 is less than 20%?
*A* true (1)

*Q* viability, T/C strictly < 20% for this molecule? CCc1c2c(nc3ccc(O)cc13)-c1cc3c(c(=O)n1C2)COC(=O)[C@]3(O)CC + CN1CCN(c2cc(C(=O)Nc3cc4cc(-c5cnn(C)c5)ccc4cn3)ccn2)CC1
*A* true (1)

*Q* Lab note: confirm whether the reported viability, T/C for this molecule is below 20%, equality not counting. molecule: COc1c(OCCCN2CCOCC2)ccc2c3n(c(=NC(=O)c4cnc(N)nc4)nc12)CCN3 + CNC(=O)c1ccc(Nc2nc(OC3CCCC3)c3c(-c4ccc5nc(C)oc5c4)c[nH]c3n2)c(OC)c1
*A* true (1)

*Q* # TODO verify viability, T/C < 20% strictly for this molecule: Cn1ncnc1[C@H]1c2n[nH]c(=O)c3cc(F)cc(c23)N[C@@H]1c1ccc(F)cc1 + CN1CCN(c2cc(C(=O)Nc3cc4cc(-c5cnn(C)c5)ccc4cn3)ccn2)CC1
*A* false (0)

*Q* Would you kindly verify if viability, T/C of CCN1CCN(Cc2ccc(Nc3ncc(F)c(-c4cc(F)c5nc(C)n(C(C)C)c5c4)n3)nc2)CC1 + CNC(=O)c1ccc(Nc2nc(OC3CCCC3)c3c(-c4ccc5nc(C)oc5c4)c[nH]c3n2)c(OC)c1 is strictly less than 20%?
*A* true (1)

*Q* Record CCc1c2c(nc3ccc(O)cc13)-c1cc3c(c(=O)n1C2)COC(=O)[C@]3(O)CC + CNC(=O)c1ccc(Nc2nc(OC3CCCC3)c3c(-c4ccc5nc(C)oc5c4)c[nH]c3n2)c(OC)c1 : is its viability, T/C strictly below 20%?
*A* true (1)

*Q* Take the molecule CCN1CCN(Cc2ccc(Nc3ncc(F)c(-c4cc(F)c5nc(C)n(C(C)C)c5c4)n3)nc2)CC1 + CN1CCN(c2cc(C(=O)Nc3cc4cc(-c5cnn(C)c5)ccc4cn3)ccn2)CC1 and say whether its viability, T/C is less than 20%.
*A* false (0)

*Q* Threshold test, viability, T/C < 20%: COc1c(OCCCN2CCOCC2)ccc2c3n(c(=NC(=O)c4cnc(N)nc4)nc12)CCN3 + CN1CCN(c2cc(C(=O)Nc3cc4cc(-c5cnn(C)c5)ccc4cn3)ccn2)CC1
*A* true (1)

* * *

Tested on: 324938-238-R-J1-PDC complex spheroids viability
Test: Anticancer human tumor 324938-238-R-J1-PDC cell line growth inhibition [CLK]; active means viability on the fitted dose curve at most 10% of control; inactive means the rest;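 also: viability read after seven days of drug exposure; 100% = DMSO vehicle control wells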
Conditions: second compound 1 µM; first compound 0.1 µM
The categories you may choose from are active, inactive

*Q* What is the recorded call for this compound in the test? CCCS(=O)(=O)Nc1ccc(F)c(C(=O)c2c[nH]c3ncc(-c4ccc(Cl)cc4)cc23)c1F + CNC(=O)c1ccc(Nc2nc(OC3CCCC3)c3c(-c4ccc5nc(C)oc5c4)c[nH]c3n2)c(OC)c1
*A* inactive

*Q* Hi, do you know how CC(Nc1ccc2c(c1)OCCn1cc(N3C(=O)OCC3C(F)F)nc1-2)C(N)=O (configuration not stated) + CNC(=O)c1ccc(Nc2nc(OC3CCCC3)c3c(-c4ccc5nc(C)oc5c4)c[nH]c3n2)c(OC)c1 came out in this test?
*A* inactive

*Q* Per the records of this test, what outcome belongs to COC1C=CCC(C)C(C)S(=O)(=O)NC(=O)c2ccc3c(c2)N(CC2CCC21)CC1(CCCc2cc(Cl)ccc21)CO3 (configuration not stated) + CN1CCN(c2cc(C(=O)Nc3cc4cc(-c5cnn(C)c5)ccc4cn3)ccn2)CC1 ?
*A* active

*Q* Each compound tested received a call. Report the one for COc1c(OCCCN2CCOCC2)ccc2c3n(c(=NC(=O)c4cnc(N)nc4)nc12)CCN3 + CN1CCN(c2cc(C(=O)Nc3cc4cc(-c5cnn(C)c5)ccc4cn3)ccn2)CC1 .
*A* active

*Q* Could you check what this test reported for C#Cc1c(F)ccc2cc(O)cc(-c3ncc4c(N5CC6CCC(C5)N6)nc(OCC56CCCN5CC(F)C6)nc4c3F)c12 (configuration not stated) + CN1CCN(c2cc(C(=O)Nc3cc4cc(-c5cnn(C)c5)ccc4cn3)ccn2)CC1 ?
*A* active

*Q* # fetch the recorded call for Cn1ncnc1[C@H]1c2n[nH]c(=O)c3cc(F)cc(c23)N[C@@H]1c1ccc(F)cc1 + CNC(=O)c1ccc(Nc2nc(OC3CCCC3)c3c(-c4ccc5nc(C)oc5c4)c[nH]c3n2)c(OC)c1 here
*A* inactive

*Q* // outcome(item) with item = COc1cccc2c1C(=O)c1c(O)c3c(c(O)c1C2=O)CC(O)(C(=O)CO)CC3OC1CC(N)C(O)C(C)O1 (configuration not stated) + CNC(=O)c1ccc(Nc2nc(OC3CCCC3)c3c(-c4ccc5nc(C)oc5c4)c[nH]c3n2)c(OC)c1
*A* inactive
